# MEASURED_ON: T1, mfNPR1-mFc:hANP complex (monkey; human, UniProt P01160 124-151)
# T1 construct: also called monkey NPR1 complexed to ANP
# EXPERIMENT_SUMMARY: SPR, mAb captured, 25C
OBSERVED_PROPERTY: t½ (h)
Reply with just the number (in h).

Solved entries:
{"BINDER": "mAb25508 (antibody, human IgG4, V domains shown) VH: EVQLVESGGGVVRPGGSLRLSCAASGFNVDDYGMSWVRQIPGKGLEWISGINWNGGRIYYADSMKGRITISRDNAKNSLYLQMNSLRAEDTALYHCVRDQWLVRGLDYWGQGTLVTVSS VL: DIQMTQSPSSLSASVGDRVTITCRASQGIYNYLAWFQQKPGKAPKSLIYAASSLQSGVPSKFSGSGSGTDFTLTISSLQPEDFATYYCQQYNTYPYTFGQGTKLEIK", "t½ (h)": 2.63}
{"BINDER": "mAb22033 (antibody, human IgG4, V domains shown) VH: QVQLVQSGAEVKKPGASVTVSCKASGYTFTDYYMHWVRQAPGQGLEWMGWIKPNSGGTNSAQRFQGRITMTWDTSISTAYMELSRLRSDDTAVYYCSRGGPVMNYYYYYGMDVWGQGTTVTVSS VL: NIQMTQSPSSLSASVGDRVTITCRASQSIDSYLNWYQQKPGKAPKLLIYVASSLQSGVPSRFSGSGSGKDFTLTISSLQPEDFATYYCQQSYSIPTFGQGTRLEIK", "t½ (h)": 3.59}
{"BINDER": "mAb25497 (antibody, human IgG4, V domains shown) VH: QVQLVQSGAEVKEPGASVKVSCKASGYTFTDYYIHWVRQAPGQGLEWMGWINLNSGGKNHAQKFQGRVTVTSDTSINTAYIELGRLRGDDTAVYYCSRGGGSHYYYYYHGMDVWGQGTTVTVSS VL: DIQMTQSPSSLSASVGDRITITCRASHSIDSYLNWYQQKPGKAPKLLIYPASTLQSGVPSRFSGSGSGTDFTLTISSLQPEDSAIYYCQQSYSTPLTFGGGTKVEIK", "t½ (h)": 5.13}
{"BINDER": "mAb22035 (antibody, human IgG4, V domains shown) VH: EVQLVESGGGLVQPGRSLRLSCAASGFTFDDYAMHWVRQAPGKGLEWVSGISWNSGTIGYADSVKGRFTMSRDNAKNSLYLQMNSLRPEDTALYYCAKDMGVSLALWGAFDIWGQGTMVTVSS VL: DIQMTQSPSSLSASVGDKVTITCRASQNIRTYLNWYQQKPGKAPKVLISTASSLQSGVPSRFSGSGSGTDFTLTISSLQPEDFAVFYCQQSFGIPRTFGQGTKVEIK", "t½ (h)": 4.13}
{"BINDER": "mAb22809 (antibody, human IgG4, V domains shown) VH: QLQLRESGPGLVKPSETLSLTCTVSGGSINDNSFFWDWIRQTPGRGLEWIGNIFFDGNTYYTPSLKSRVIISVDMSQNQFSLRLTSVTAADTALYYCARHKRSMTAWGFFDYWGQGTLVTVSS VL: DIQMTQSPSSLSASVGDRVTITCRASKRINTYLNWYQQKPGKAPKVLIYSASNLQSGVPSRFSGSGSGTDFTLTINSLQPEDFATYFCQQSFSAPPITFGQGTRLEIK", "t½ (h)": 1.11}
{"BINDER": "mAb22805 (antibody, human IgG4, V domains shown) VH: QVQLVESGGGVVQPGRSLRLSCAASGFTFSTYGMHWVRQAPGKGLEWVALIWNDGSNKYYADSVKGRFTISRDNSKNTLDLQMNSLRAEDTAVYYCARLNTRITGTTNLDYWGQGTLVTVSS VL: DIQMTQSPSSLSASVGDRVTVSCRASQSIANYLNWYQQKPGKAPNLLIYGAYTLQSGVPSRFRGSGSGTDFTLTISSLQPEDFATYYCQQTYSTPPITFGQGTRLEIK", "t½ (h)": 2.02}
{"BINDER": "mAb25502 (antibody, human IgG4, V domains shown) VH: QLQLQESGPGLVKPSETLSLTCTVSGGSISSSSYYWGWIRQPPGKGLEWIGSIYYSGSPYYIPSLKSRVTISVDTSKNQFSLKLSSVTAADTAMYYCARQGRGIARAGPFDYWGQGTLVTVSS VL: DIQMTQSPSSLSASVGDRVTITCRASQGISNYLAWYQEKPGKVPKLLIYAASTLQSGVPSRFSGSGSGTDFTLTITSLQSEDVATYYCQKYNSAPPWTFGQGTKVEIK", "t½ (h)": 0.73}
{"BINDER": "mAb25479 (antibody, human IgG4, V domains shown) VH: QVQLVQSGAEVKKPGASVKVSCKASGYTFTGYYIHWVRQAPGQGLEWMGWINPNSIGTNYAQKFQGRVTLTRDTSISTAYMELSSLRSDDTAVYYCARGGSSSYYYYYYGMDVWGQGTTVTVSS VL: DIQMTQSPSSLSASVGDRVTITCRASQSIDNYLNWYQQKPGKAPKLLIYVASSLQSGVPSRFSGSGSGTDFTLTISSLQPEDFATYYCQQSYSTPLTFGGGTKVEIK", "t½ (h)": 1.88}

Switching to the query record.
## Input Tell me the measured t½ of mAb25491 (antibody, human IgG4, V domains shown) VH: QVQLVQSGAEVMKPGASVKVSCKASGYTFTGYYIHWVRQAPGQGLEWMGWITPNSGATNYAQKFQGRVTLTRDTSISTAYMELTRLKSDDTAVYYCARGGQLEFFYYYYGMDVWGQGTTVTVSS VL: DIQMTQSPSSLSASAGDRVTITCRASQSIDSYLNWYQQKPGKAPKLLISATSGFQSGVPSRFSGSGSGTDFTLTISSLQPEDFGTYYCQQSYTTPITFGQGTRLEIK , please.
## Output 4.23
